- test: Solubility in gastric juice or intestinal juice model fluid (precipitation method using DMSO)
- Format: physicochemical
- particulars: pH 1.2, simulated gastric fluid, kinetic from dmso stock, 1st fluid for Disintegration Test of Japanese Pharmacopoeia (pH: 1.2), room temperature, read-out: Solubility (μg/mL) 1st fluid
# solubility at 24 h annotations
measure: solubility at 24 h (µg/mL)

>>> numeric_result("Fc1ccc(-c2ncc(-c3ccc(OCc4ncc(C(F)(F)F)cc4F)cc3OCc3ccccc3)[nH]2)cn1")
79.2
>>> numeric_result("COc1cc(OCc2ccc(C(F)(F)F)cc2)ccc1-c1cnc(-c2ccc(F)nc2)[nH]1")
15.5
>>> numeric_result("COc1cc(OCc2cccc(C#N)n2)ccc1-c1cnc(C2CCC(F)(F)CC2)[nH]1")
83.6

====

# melting point annotations
measure: melting point

>>> result("COc1cc(OCc2ccc(C(F)(F)F)cc2)ccc1-c1[nH]c(-c2ccc(F)nc2)nc1Cl")
"163 to 166 °C"
>>> result("COc1cc(OCc2ccc(C(F)(F)F)nc2)ccc1-c1c(C)nc(-c2ccc(Cl)nc2)n1CC1CC1")
"164 to 166 °C"
>>> result("COc1cc(OCc2ccc(C(F)(F)F)cn2)ccc1-c1c[nH]c(-c2ccc(Cl)nc2)n1")
"215 to 217 °C"
>>> result("CCc1cc(OCc2ncc(C(F)(F)F)cc2F)ccc1-c1[nH]c(-c2ccc(F)nc2)nc1Cl")
"187 to 188 °C"
>>> result("COc1c(OCc2ccc(C(F)(F)F)cn2)ccc(-c2[nH]c(C3CCC(F)(F)CC3)nc2Cl)c1OC")
"175 to 177 °C"
>>> result("COc1cc(OCc2cc(C(F)(F)F)ccn2)ccc1-c1[nH]c(-c2ccc(F)nc2)nc1Br")
"179 to 181 °C"
>>> result("CCSc1ccc(-c2ncc(-c3ccc(OCc4ncc(C(F)(F)F)cc4F)cc3OC)[nH]2)cn1")
"145 to 149 °C"
>>> result("COc1cc(OCc2ccc(F)cc2F)ccc1-c1[nH]c(-c2ccc(F)nc2)nc1Cl")
"163 to 165 °C"

====

# melting point annotations
measure: melting point

>>> result("COc1cc(OCc2ccc(F)cc2F)ccc1-c1cnc(-c2ccc(Cl)nc2)[nH]1 [Example 101]")
"213 to 218 °C"
>>> result("COc1cc(-c2[nH]c(C3CCCC(F)(F)C3)nc2Br)ccc1OCc1ccc(C(F)(F)F)cn1 (centres unmarked) [Example 170]")
"158 to 160 °C"
>>> result("COc1cc(OCc2ccnc(C(F)(F)F)c2)ccc1-c1[nH]c(-c2ccc(Cl)nc2)nc1Cl [Example 242]")
"236 to 239 °C"
>>> result("COc1cc(OCc2cccc(C(F)(F)F)n2)ccc1-c1[nH]c(-c2ccc(Cl)nc2)nc1Cl [Example 282]")
"190 to 193 °C"
>>> result("COc1cc(OCc2ccc(C(F)(F)F)nc2)ccc1-c1nc(-c2ccc(Cl)nc2)n(CC2CC2)c1C [Example 154]")
"110 to 112 °C"
>>> result("COc1cc(OCc2ccc(C(F)(F)F)cn2)ccc1-c1c[nH]c(-c2ccc(Cl)cn2)n1 [Example 42]")
"147 to 150 °C"
>>> result("COc1cc(-c2c[nH]c(C3CCCC3)n2)ccc1OCc1ccc(C(F)(F)F)cn1 [Example 78]")
"207 to 210 °C"
>>> result("COc1cc(-c2c[nH]c(C3CCC(F)(F)CC3)n2)cc(OC)c1OCc1ccc(C(F)(F)F)cn1 [Example 63]")
"155 to 168 °C (dec.)"

====

- test: Solubility in gastric juice or intestinal juice model fluid (precipitation method using DMSO)
- Format: physicochemical
- particulars: pH 6.8, kinetic from dmso stock, 2nd fluid for Disintegration Test of Japanese Pharmacopoeia (pH: 6.8), room temperature, read-out: Solubility (μg/mL) 2nd fluid
solubility at 24 h below 1 µg/mL gives f; solubility at 24 h at or above it gives t.

>>> cat("COc1cc(OCc2ncccc2C#N)ccc1-c1[nH]c(C2CCC(F)(F)CC2)nc1Cl")
"t"
>>> cat("COc1ccc(-c2nc(-c3ccc(OCc4ccc(C(F)(F)F)cn4)cc3OC)c[nH]2)cn1")
"t"
>>> cat("COc1cc(OCc2ncccc2C#N)ccc1-c1[nH]c(C2CCC(F)(F)CC2)nc1Br")
"t"
>>> cat("COc1cc(OCc2ncc(F)cc2F)ccc1-c1cnc(-c2ccc(F)nc2)[nH]1")
"t"
>>> cat("COc1cc(-c2c[nH]c(C34CC5CC(CC(C5)C3)C4)n2)cc(OC)c1OCc1ccc(C(F)(F)F)cn1")
"f"
>>> cat("COc1cc(OCc2ccc(C(F)(F)F)cc2)ccc1-c1nc(-c2ccc(Cl)cn2)[nH]c1C")
"f"
>>> cat("COc1cc(OCc2cnc(C)cn2)ccc1-c1c[nH]c(-c2ccc(F)nc2)n1")
"t"
>>> cat("COc1cc(OCc2cnc(Cl)s2)ccc1-c1cnc(-c2ccc(F)nc2)[nH]1")
"t"
>>> cat("COc1cc(OCc2ccc(C(F)(F)F)cn2)ccc1-c1c[nH]c(C2CCC(C)CC2)n1 (centres unmarked)")
"t"
>>> cat("COc1cc(-c2nc(-c3ccc(Cl)cn3)[nH]c2C)ccc1OCc1ccc(C(F)(F)F)cn1")
"t"
>>> cat("COc1cc(OCc2ccc(Br)cc2F)ccc1-c1c[nH]c(-c2ccc(F)nc2)n1")
"t"
>>> cat("COc1cc(-c2nc(-c3ccc(Cl)cn3)[nH]c2C)ccc1OCc1ccc(C(F)(F)F)nc1")
"f"
>>> cat("COc1cc(-c2[nH]c(-c3ccc(F)nc3)nc2Cl)ccc1OCc1ncc(C(F)(F)F)cc1F")
"t"
>>> cat("COc1cc(-c2c[nH]c(C3CCC(F)(F)CC3)n2)cc(OC)c1OCc1ccc(C(F)(F)F)cn1")
"t"
>>> cat("COc1cc(OCc2ccc(C(F)(F)F)cn2)ccc1-c1c[nH]c(-c2cccnc2)n1")
"t"
>>> cat("COc1c(OCc2ccc(C(F)(F)F)nc2)ccc(-c2cnc(C3CCC(F)(F)CC3)[nH]2)c1OC")
"f"
>>> cat("COc1cc(-c2c[nH]c(C3CCCCCC3)n2)cc(OC)c1OCc1ccc(C(F)(F)F)cn1")
"t"
>>> cat("COc1cc(-c2c[nH]c(C3CCC(F)(F)CC3)n2)ccc1OCc1ccc(C(F)(F)F)cn1")
"t"
>>> cat("COc1c(OCc2ccc(C(F)(F)F)cn2)ccc(-c2c[nH]c(C3CCC(F)(F)CC3)n2)c1OC")
"f"
>>> cat("COc1cc(-c2cnc(C(C)(C)C)[nH]2)ccc1OCc1ncc(C(F)(F)F)cc1F")
"t"
>>> cat("COCn1cc(-c2ccc(OCc3ccc(C(F)(F)F)cn3)cc2OC)nc1-c1ccc(F)nc1")
"f"
>>> cat("COc1cc(OCc2ccccc2)ccc1-c1[nH]c(-c2ccc(F)nc2)nc1C")
"t"
>>> cat("COc1cc(OCc2ccc(C(F)(F)F)cn2)ccc1-c1c(Cl)nc(-c2ccc(F)nc2)n1C")
"f"
>>> cat("COc1cc(OCc2ccc(C(F)(F)F)cn2)ccc1-c1c(Br)nc(-c2ccc(Cl)nc2)n1C")
"f"
>>> cat("COc1cc(-c2cnc(C3CCC(F)(F)CC3)[nH]2)ccc1OCc1ccc(C(F)(F)F)nc1")
"t"
>>> cat("Oc1ccc(-c2cnc(-c3ccc(F)nc3)[nH]2)cc1")
"t"
>>> cat("COc1cc(OCc2c(F)cc(C(F)(F)F)c[n+]2[O-])ccc1-c1[nH]c(-c2ccc(F)nc2)nc1Cl")
"t"
>>> cat("COc1cc(O[C@@H](C)c2ccc(C(F)(F)F)nc2)ccc1-c1cnc(-c2ccc(F)nc2)[nH]1")
"t"
>>> cat("COc1cc(OCc2ncc(Br)cc2F)ccc1-c1[nH]c(-c2ccc(F)nc2)nc1Cl")
"t"

====

- test: Solubility in gastric juice or intestinal juice model fluid (precipitation method using DMSO)
- Assay type: physicochemical
- particulars: pH 1.2, simulated gastric fluid, kinetic from dmso stock, 1st fluid for Disintegration Test of Japanese Pharmacopoeia (pH: 1.2), room temperature, read-out: Solubility (μg/mL) 1st fluid
solubility at 24 h below 50 µg/mL gives f; solubility at 24 h at or above it gives t.

>>> cat("COc1cc(OCc2ccc(C(F)(F)F)cn2)ccc1-c1nc(-c2ccc(F)nc2)n(C)c1Cl")
"t"
>>> cat("COc1cc(OCc2ccc(C(F)(F)F)[n+]([O-])c2)ccc1-c1[nH]c(-c2ccc(F)nc2)nc1Cl")
"f"
>>> cat("Oc1ccc(-c2cnc(-c3ccc(F)nc3)[nH]2)c(Cl)c1")
"t"
>>> cat("COc1cc(OCc2ncc(C(F)(F)F)cc2F)ccc1-c1[nH]c(C2CC(F)(F)C2)nc1C")
"t"
>>> cat("COc1cc(-c2cnc(-c3ccc(F)nc3)[nH]2)ccc1OC(C)c1ncc(C(F)(F)F)cc1F (stereo not shown)")
"t"
>>> cat("COc1cc(-c2[nH]c(C3CCCC3)nc2Cl)ccc1OCc1ncc(C(F)(F)F)cc1F")
"t"
>>> cat("COc1cc(OCc2ncc(C(F)(F)F)cc2F)ccc1-c1[nH]c(-c2ccc(F)nc2)nc1Br")
"f"
>>> cat("COc1cc(OC(C)c2ccc(C(F)(F)F)nc2)ccc1-c1[nH]c(-c2ccc(F)nc2)nc1Cl (stereo not shown)")
"f"
>>> cat("COc1cc(OCc2ncc(C(F)(F)F)cc2Br)ccc1-c1cnc(-c2ccc(F)nc2)[nH]1")
"f"
>>> cat("COc1cc(OCc2ccc(C(F)(F)F)cn2)ccc1-c1nc(-c2ccc(F)nc2)[nH]c1C")
"t"
>>> cat("COc1cc(OCc2ccc(C(F)(F)F)cn2)ccc1-c1c[nH]c(C2CCC(C)CC2)n1 (stereo not shown)")
"t"
>>> cat("COc1cc(OCc2ccc(C(F)(F)F)nc2)ccc1-c1cnc(C2CC(F)(F)C2)[nH]1")
"t"
>>> cat("COc1cc(-c2[nH]c(C3CCC(F)(F)CC3)nc2Cl)ccc1OCc1ncc(C(F)(F)F)cc1F")
"t"
>>> cat("COc1cc(-c2cnc(C3CC(F)(F)C3)[nH]2)ccc1OCc1ncc(C(F)(F)F)cc1F")
"t"
>>> cat("COCn1cc(-c2ccc(OCc3ccc(C(F)(F)F)cn3)cc2OC)nc1-c1ccc(Cl)nc1")
"t"

# credit: patent US10570117B2
